Taken from paper PMC3335862.

Assay: in vitro
Details: human
observable: CC50 (µM)
Quick note: give the figure in µM, leave out the unit.

[ask] Identify the reported CC50 for the following entry. CS(=O)(=O)N1CCC(Nc2nc(Nc3cccc(C(F)(F)F)c3)nc(OCC(F)(F)F)n2)CC1 [PRO0371155]
[reply] 31

====

Tested on: HCVpp GT 1a V719A
Type: cell-based, hepatitis C virus
Conditions: Genotype 1a background
observable: pEC50
Please keep in mind that pEC50 is minus log10 of the molar concentration; only the number is needed.

[ask] Identify the reported pEC50 for the following entry. CS(=O)(=O)N1CCC(Nc2nc(Nc3cccc(C(F)(F)F)c3)nc(OCC(F)(F)F)n2)CC1 [PRO0371155]
[reply] 7.04

====

System: HCVpp pseudotyped with the GT1a envelope
Assay: microbe, parasite or virus in culture
Assay type: cell-based
Settings: Hepatitis C virus, median across panel of GT 1a envelopes from HCV+ patient sera (n = strains), Hep3B cells, 72 h, read-out: HCVpp Median EC50 GT 1a
observable: pEC50
Please keep in mind that pEC50 is minus log10 of the molar concentration; only the number is needed.

[ask] Identify the reported pEC50 for the following entry. "CS(=O)(=O)N1CCC(Nc2nc(Nc3cccc(C(F)(F)F)c3)nc(OCC(F)(F)F)n2)CC1"
[reply] 8.05

====

System: HCVpp genotype 4
Experiment: microbe, parasite or virus in culture
Type: cell-based
Conditions: Hepatitis C virus; n = 1 strain
observable: EC50 (nM)
Quick note: give the figure in nM, leave out the unit.

[ask] Identify the reported EC50 for the following entry. "CS(=O)(=O)N1CCC(Nc2nc(Nc3cccc(C(F)(F)F)c3)nc(OCC(F)(F)F)n2)CC1"
[reply] 190

====

Test system: HCVpp GT 1b
Assay: microbe, parasite or virus in culture
Type: cell-based
Settings: Hepatitis C virus, GT1B; median across panel of GT 1b envelopes from HCV+ patient sera (n = strains); Hep3B cells, 72 h; read-out: HCVpp Median EC50 GT 1b
pEC50: −log10 of the molar value.
observable: pEC50

[ask] Identify the reported pEC50 for the following entry. "CS(=O)(=O)N1CCC(Nc2nc(Nc3cccc(C(F)(F)F)c3)nc(OCC(F)(F)F)n2)CC1"
[reply] < 6.08

====

Tested on: HCVpp typed with envelopes representing genotypes 2a, 2b, 3, and 6
Assay: microbe, parasite or virus in culture
Assay type: cell-based
Details: Hepatitis C virus
pEC50: −log10 of the molar value.
observable: pEC50

[ask] Report its pEC50 with HCVpp typed with envelopes representing genotypes 2a, 2b, 3, and 6 as the test system: "CS(=O)(=O)N1CCC(Nc2nc(Nc3cccc(C(F)(F)F)c3)nc(OCC(F)(F)F)n2)CC1"
[reply] < 6.00

====

System: HCVpp T388A
Type: cell-based, hepatitis C virus
Conditions: GT1a background
observable: EC50 (nM)
Quick note: give the figure in nM, leave out the unit.

[ask] Identify the reported EC50 for the following entry. "CS(=O)(=O)N1CCC(Nc2nc(Nc3cccc(C(F)(F)F)c3)nc(OCC(F)(F)F)n2)CC1"
[reply] 2
